Target: UniProt P43220
Sequence (P43220 24-463): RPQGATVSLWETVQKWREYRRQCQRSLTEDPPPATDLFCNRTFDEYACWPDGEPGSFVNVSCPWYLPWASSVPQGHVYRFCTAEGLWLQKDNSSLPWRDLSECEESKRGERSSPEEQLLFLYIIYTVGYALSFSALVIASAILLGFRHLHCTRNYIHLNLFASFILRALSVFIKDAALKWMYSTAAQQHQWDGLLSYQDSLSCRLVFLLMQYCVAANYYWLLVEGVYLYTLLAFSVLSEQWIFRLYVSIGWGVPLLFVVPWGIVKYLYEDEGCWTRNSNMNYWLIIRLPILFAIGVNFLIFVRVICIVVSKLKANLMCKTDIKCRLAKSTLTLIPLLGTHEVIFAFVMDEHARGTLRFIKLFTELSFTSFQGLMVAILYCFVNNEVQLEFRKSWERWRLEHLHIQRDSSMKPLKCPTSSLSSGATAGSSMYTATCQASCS
Assay: GLP-1R Cell Assay 1: cAMP Hunter CHO-K1 GLP1R Gs cell line, HitHunter cAMP assay
Format: cell-based
Details: Table 2; cAMP Hunter CHO-K1 GLP1R Gs cells; percent activity normalized to Exendin-4
Description: GLP-1R mediated agonist activity was determined using the cAMP Hunter CHO-K1 GLP1R Gs cell line (DiscoverX, cat# 95-0062C2), a stable CHO-K1 derived cell lines overexpressing naturally Gs coupled wild-type human GLP-1R (accession number: NM_002062.3). GLP-1R agonism in this cell line was detected by measuring cellular cAMP levels using the HitHunter cAMP assay kit (cat# 90-0075SM2), a homogenous, gain-of-signal competitive immune assay based on Enzyme Fragment Complementation (EFC) technology. […]
pEC50: −log10 of the molar value.
# pEC50 per record follows
REPORTED_ENDPOINT: pEC50

INSERT INTO results (molecule, relation_symbol, readout_number) VALUES
  ('Cc1cn(C2CCN(Cc3nc4ccc(C(=O)O)cc4n3C[C@@H]3CCO3)CC2)nc1OCc1ccccc1', '=', 6.46),
  ('Cn1cc(COc2cccc(N3CCN(Cc4nc5ccc(C(=O)O)cc5n4C[C@@H]4CCO4)CC3)n2)cn1', '=', 7.12),
  ('O=C(O)c1ccc2nc(CN3CCC(n4nc(OCc5ccccc5)c5c4CCCC5)CC3)n(C[C@@H]3CCO3)c2c1', '<', 6.30),
  ('O=C(O)c1ccc2nc(CN3CCN(c4cccc(NCc5ccccc5)n4)CC3)n(C[C@@H]3CCO3)c2c1', '=', 7.37),
  ('N#Cc1cccc2c1CCN(c1cccc(N3CCN(Cc4nc5ccc(C(=O)O)cc5n4C[C@@H]4CCO4)CC3)n1)CC2', '=', 6.69),
  ('N#Cc1ccc(COc2nn(C3CCN(Cc4nc5ccc(C(=O)O)cc5n4C[C@@H]4CCO4)CC3)cc2C#N)c(F)c1', '=', 7.43),
  ('N#Cc1ccc(Cn2cnc3ccc(N4CCN(Cc5nc6ccc(C(=O)O)cc6n5C[C@@H]5CCO5)CC4)nc32)c(F)c1', '=', 6.61),
  ('CC(C)c1cn(C2CCN(Cc3nc4ccc(C(=O)O)cc4n3C[C@@H]3CCO3)CC2)nc1OCc1ccc(C#N)cc1F', '=', 6.73),
  ('O=C(O)c1ccc2nc(CN3CCN(c4cccc(OCC5CCCCC5)n4)CC3)n(C[C@@H]3CCO3)c2c1', '=', 7.37),
  ('CN(Cc1ccc(C(N)=O)cc1)c1cccc(N2CCN(Cc3nc4ccc(C(=O)O)cc4n3C[C@@H]3CCO3)CC2)n1', '<', 6.30),
  ('O=C(O)c1ccc2nc(CN3CCC(n4ccc(COc5ccccc5)n4)CC3)n(C[C@@H]3CCO3)c2c1 [Compound 26-P1]', '<', 6.30),
  ('N#Cc1cccc2c1CCCN2c1cccc(N2CCN(Cc3nc4ccc(C(=O)O)cc4n3C[C@@H]3CCO3)CC2)n1', '=', 6.50),
  ('N#CC1(COc2cccc(N3CCN(Cc4nc5ccc(C(=O)O)cc5n4C[C@@H]4CCO4)CC3)n2)COC1', '<', 6.30),
  ('O=C(O)c1ccc2nc(CN3CCC(c4cccc(OCc5nccs5)n4)CC3)n(C[C@@H]3CCO3)c2c1', '=', 8.58),
  ('N#Cc1ccc2c(c1)CCN(c1cccc(N3CCN(Cc4nc5ccc(C(=O)O)cc5n4C[C@@H]4CCO4)CC3)n1)C2', '=', 8.09),
  ('O=C(O)c1ccc2nc(CN3CCN(c4cccc(OCC5COC5)n4)CC3)n(C[C@@H]3CCO3)c2c1', '<', 6.30),
  ('O=C(O)c1ccc2nc(CN3CCC(n4nccc4COc4ccccc4)CC3)n(C[C@@H]3CCO3)c2c1 (single isomer, unassigned) [Compound 26-P2]', '<', 6.30),
  ('N#Cc1ccc2c(c1)CCN(c1ccn(C3CCN(Cc4nc5ccc(C(=O)O)cc5n4C[C@@H]4CCO4)CC3)n1)C2', '<', 6.30),
  ('Cc1cn(C2CCN(Cc3nc4ccc(C(=O)O)cc4n3C[C@@H]3CCO3)CC2)nc1OCc1ccc(C#N)cc1F', '=', 8.29),
  ('O=C(O)c1ccc2nc(CN3CCN(c4nc(OCc5ccccc5)ns4)CC3)n(C[C@@H]3CCO3)c2c1', '<', 6.30),
  ('N#Cc1ccc2c(c1)CCCN(c1cccc(N3CCN(Cc4nc5ccc(C(=O)O)cc5n4C[C@@H]4CCO4)CC3)n1)C2', '=', 6.85),
  ('O=C(O)c1ccc2nc(CN3CCN(c4cccc(N5CCc6cc(Cl)cc(F)c6C5)n4)CC3)n(C[C@@H]3CCO3)c2c1', '=', 8.96),
  ('N#Cc1ccc(COc2cccc(C3CCN([C@@H]4CCCCn5c4nc4ccc(C(=O)O)cc45)CC3)n2)c(F)c1', '<', 6.30),
  ('N#Cc1ccc(COc2nn(C3CCN(Cc4nc5ccc(C(=O)O)cc5n4C[C@@H]4CCO4)CC3)cc2C(F)F)c(F)c1', '=', 8.31),
  ('N#Cc1ccc(COc2nn(C3CCN(Cc4nc5ccc(C(=O)O)cc5n4C[C@@H]4CCO4)CC3)cc2Cl)c(F)c1', '=', 8.40),
  ('O=C(O)c1ccc2nc(CN3CCN(c4cccc(OCc5nc6ccc(F)cc6s5)n4)CC3)n(C[C@@H]3CCO3)c2c1', '=', 9.61),
  ('O=C(O)c1ccc2nc(CN3CCC(c4cccc(OCc5ncc(Cl)s5)n4)CC3)n(C[C@@H]3CCO3)c2c1', '=', 9.65),
  ('C[C@@H]1COC[C@@H](N2CCC(c3cccc(OCc4ccc(C#N)cc4F)n3)CC2)c2nc3ccc(C(=O)O)cc3n21', '=', 7.11);

Entry source: patent US20220089578A1
